# TARGET: chimeric BTLA of humanised-BTLA mice (human extracellular region, murine transmembrane and signaling … (human; mouse, UniProt Q7TSA3 184-306, limits assumed)
# Sequence (Q7TSA3 other isoform, or with tags, fused parts or gaps mutant limits assumed): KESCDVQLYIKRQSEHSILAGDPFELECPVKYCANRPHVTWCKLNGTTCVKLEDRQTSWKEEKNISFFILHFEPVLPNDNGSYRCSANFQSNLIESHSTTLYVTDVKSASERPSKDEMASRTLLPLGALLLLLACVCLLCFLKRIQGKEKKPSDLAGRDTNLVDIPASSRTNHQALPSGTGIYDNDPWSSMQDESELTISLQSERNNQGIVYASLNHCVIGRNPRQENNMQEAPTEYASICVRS
# TEST: cell-based or functional assay
ENDPOINT_LABEL: MLR (CD4 T cell proliferation) repeat 2, % inhibition (%)
Supply the numeric figure in %, leaving out any unit text.

- BINDER: "24H7 (antibody, IgG1, V domains shown) VH: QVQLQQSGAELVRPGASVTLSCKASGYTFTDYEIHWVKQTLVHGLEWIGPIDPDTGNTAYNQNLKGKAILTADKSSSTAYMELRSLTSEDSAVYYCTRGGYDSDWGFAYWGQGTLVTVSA VL: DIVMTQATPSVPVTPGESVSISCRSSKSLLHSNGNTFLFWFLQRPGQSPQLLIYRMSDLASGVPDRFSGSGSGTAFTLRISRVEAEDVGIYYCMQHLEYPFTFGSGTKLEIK"
  REPORTED_MEASUREMENT: 31
- BINDER: "16H2 (antibody, IgG1, V domains shown) VH: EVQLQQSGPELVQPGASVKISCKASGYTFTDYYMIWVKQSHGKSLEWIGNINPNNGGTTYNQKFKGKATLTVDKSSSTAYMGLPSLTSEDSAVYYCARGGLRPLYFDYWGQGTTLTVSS VL: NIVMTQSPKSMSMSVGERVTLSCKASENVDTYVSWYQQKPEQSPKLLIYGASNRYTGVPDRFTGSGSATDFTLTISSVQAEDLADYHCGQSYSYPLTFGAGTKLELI"
  REPORTED_MEASUREMENT: 26
- BINDER: "8C4 (antibody, IgG1, V domains shown) VH: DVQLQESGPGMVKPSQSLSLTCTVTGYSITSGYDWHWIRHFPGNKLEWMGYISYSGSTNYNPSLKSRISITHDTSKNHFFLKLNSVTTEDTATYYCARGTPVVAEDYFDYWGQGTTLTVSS VL: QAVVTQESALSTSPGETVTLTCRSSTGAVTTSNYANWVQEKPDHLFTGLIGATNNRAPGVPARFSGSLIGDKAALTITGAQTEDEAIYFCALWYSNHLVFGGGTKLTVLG"
  REPORTED_MEASUREMENT: -2
- BINDER: "12F11 (antibody, IgG1, V domains shown) VH: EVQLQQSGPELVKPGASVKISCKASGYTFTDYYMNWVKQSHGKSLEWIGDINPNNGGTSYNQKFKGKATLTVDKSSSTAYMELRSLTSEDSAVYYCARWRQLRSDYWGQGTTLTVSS VL: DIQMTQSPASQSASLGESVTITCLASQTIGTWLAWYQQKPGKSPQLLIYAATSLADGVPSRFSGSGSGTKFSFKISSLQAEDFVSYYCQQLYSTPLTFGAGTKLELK"
  REPORTED_MEASUREMENT: 23

Pending binder:
Using the record for 4B1 (antibody, IgG1, V domains shown) VH: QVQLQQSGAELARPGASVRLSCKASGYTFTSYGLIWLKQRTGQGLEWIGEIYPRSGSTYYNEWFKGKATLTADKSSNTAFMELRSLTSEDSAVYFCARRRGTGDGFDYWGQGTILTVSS VL: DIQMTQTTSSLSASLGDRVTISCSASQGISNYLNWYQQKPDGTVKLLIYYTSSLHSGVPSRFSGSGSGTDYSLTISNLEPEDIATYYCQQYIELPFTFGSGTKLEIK , state its measured MLR (CD4 T cell proliferation) repeat 2, % inhibition.
30
